Origin of the recorded values: the Human Domainome abundance scans (Beltran et al. 2025)

B1: Proto-oncogene vav, residues 782 to 842; numbered along this chain, P15498 (parent)
chain: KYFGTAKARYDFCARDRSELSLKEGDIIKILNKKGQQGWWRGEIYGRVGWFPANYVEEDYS

- Variants of: B1
- METHOD_SUMMARY: abundance fitness (aPCA) (normalised: wild type 0, dead -1); higher = more abundant; growth selection in yeast, the domain comes from the species named
- CONDITIONS: Homo sapiens
Binning of abundance fitness into classes: group 1 (below -0.6), group 2 (-0.6 to below -0.1), group 3 (-0.1 or more)

Use the examples below as a reference point.
KYFGTAKARYDFCARDRSELSLKEGDIIKILNKKGQQGFWRGEIYGRVGWFPANYVEEDYS
group 2
KYFGTAKARYDFCARDRSELSLKEGDIIKILNKKGQQGWWRGEIYGRVGWFPANYVEVDYS
group 2
KYFGTAKARYDFCARDRSELSLKEGDIIKILNKKGQSGWWRGEIYGRVGWFPANYVEEDYS
group 3
KYFGTAKARYDFCARDRSELSLKEGDIIKILNKKGQQGWWRGEIYGRVGWFPANYVEWDYS
group 2
KYFGTAKARYDFCARDRSELSLKEGDIIKILNKKGQQGWWREEIYGRVGWFPANYVEEDYS
group 1
KYFGTAKARYDFCARDRSELSAKEGDIIKILNKKGQQGWWRGEIYGRVGWFPANYVEEDYS
group 2
KYFGTAKARYDFCARDRSELSLKEGDIQKILNKKGQQGWWRGEIYGRVGWFPANYVEEDYS
group 1
KYFGTAKARYDFCARDRSELSLKEGDIIKWLNKKGQQGWWRGEIYGRVGWFPANYVEEDYS
group 1

Next up:
Where would `KYFGTAKARYDFCARDRSELSLKEGDIIKILNKKGQQGWWRGEIYGRVGWFPACYVEEDYS` land among the classes by reported abundance fitness?
group 3
